Test system: DMS 114 small cell lung
procedureText: NCI tumour cell line growth inhibition, 48 h
# Lookup of reported TGI keyed by entry

Guide cases for TGI, answers given:
compound | resultType | result
COc1ccc(CN[C@H]2CCc3cc(OC)c(OC)c(OC)c3-c3ccc(SC)c(=O)cc32)c(OC)c1OC | TGI | 0.0402 µM
CC(C)C(NCc1c2ccccc2nc2ccccc12)C(=O)O (centres undefined) | TGI | 90.1 µM
O=C(O)CNCc1c2ccccc2nc2ccccc12 | TGI | 72.7 µM
CCc1cc2c(c3[nH]ccc13)[C@@H](C)C[C@H]2C | TGI | 43.4 µM
N#CC(N)(C(=O)C(=O)NCCCNC(=O)C(=O)C(N)(C#N)c1ccc(Cl)cc1)c1ccc(Cl)cc1 (centres undefined) | TGI | > 100 µM

Specify TGI for O=C(O)CSc1nnc(COc2ccccc2)n1-c1ccccc1 and stop.
> 100 µM

Specify TGI for CC(C)=CCCC1(C)C=Cc2c(ccc3c2[nH]c2cc(O)c(C)cc23)O1 (centres undefined) and stop.
19.8 µM

Specify TGI for NC(=O)COc1ccc(Br)cc1Br and stop.
> 100 µM

Specify TGI for CCCN(CCC)c1c([N+](=O)[O-])cc(C(N)=O)cc1[N+](=O)[O-] and stop.
> 100 µM

Specify TGI for COc1ccccc1NC(=O)NS(=O)(=O)c1ccccc1 and stop.
> 100 µM

Specify TGI for CC1[C@@H]2C[C@@H]3O[C@@]34[C@H]3CCC5Cc6nc7c(nc6C[C@@]5(C)C3(O)CC(=O)[C@@]24CO[C@]12OC(C)(C)CC2O)CC1CC[C@@H]2C3=C[C@H]4O[C@@]5(O[C@@](C)(CO)C[C@@H]5O)C(C)[C@@]4(O)[C@]3(C)[C@@H](O)CC2[C@]1(C)C7 (some centres undefined) and stop.
1.09 µM

Specify TGI for COC(=O)C([O][Ge]([CH3])([CH3])[CH3])c1ccccc1 (centres undefined) and stop.
> 100 µM

Specify TGI for O=C1NC(=Nc2ccccc2Cl)SC1C(=O)Nc1ccc([N+](=O)[O-])cc1[N+](=O)[O-] (centres undefined) and stop.
> 100 µM

Specify TGI for CC(C(=O)C(C)O[Si](c1ccccc1)(c1ccccc1)C(C)(C)C)=P(c1ccccc1)(c1ccccc1)c1ccccc1 (centres undefined) and stop.
6.25 µM

----------
# Lookup of reported TGI keyed by entry
Tested on: SN12C renal
procedureText: NCI tumour cell line growth inhibition, 48 h

Guide cases for TGI, answers given:
molecule | TGI
C=C1CC2C[C@H](OS(=O)(=O)c3ccc(C)cc3)C(C1)N2C (stereo partly specified) | > 100 µM
O=c1cc(-c2ccccc2)[nH]c2c(F)ccc(F)c12 | > 100 µM
CC(=O)c1nc(C#N)c(N)o1 | > 100 µM
NC(=S)c1cn(C2OC(CO)C(O)C2O)c2ncnc(N)c12 (stereo unspecified) | 12.5 µM
CCc1cc(Nc2nccc(-c3c(-c4ccc(OC)c(C(=O)Nc5c(F)cccc5F)c4)nc4ccccn34)n2)c(OC)cc1N1CCC(N2CCN(S(C)(=O)=O)CC2)CC1 | > 100 µM

Specify TGI for CCN(CC)c1ccc(/C=C2/NC(=O)NC2=O)cc1 and stop.
> 100 µM

Specify TGI for COc1ccccc1NC(=O)NS(=O)(=O)c1ccccc1 and stop.
> 100 µM

----------
# Lookup of reported TGI keyed by entry
Test system: HT29 colon
procedureText: NCI tumour cell line growth inhibition, 48 h

Guide cases for TGI, answers given:
compound | TGI
CCN(CC)CCn1nc2c3c(cccc3c1=O)-c1ccccc1-2 | 13.2 µM
O=C(c1cccs1)N(C(=O)N1CCCCC1)c1ccccc1 | > 100 µM
N#Cc1nc(-c2ccccn2)c(-c2ccccn2)nc1C#N | 14.4 µM

Specify TGI for Cc1cc(N)c2cc(NC(=O)CCCCCCCCC(=O)Nc3ccc4nc(C)cc(N)c4c3)ccc2n1 and stop.
> 100 µM

Specify TGI for CCC(C)Cn1c(C)nc2c1C(=O)c1ccccc1C2=O (stereo unspecified) and stop.
> 100 µM

Specify TGI for COC(=O)C1=C(C)NC(C)=C(C(=O)OC)C1c1ccccc1[N+](=O)[O-] and stop.
> 100 µM

----------
Tested on: PC-3 prostate
procedureText: NCI tumour cell line growth inhibition, 48 h
resultType: TGI

compound | TGI
CN1C(=O)[C@](C)(Cc2ccc(F)cc2)N(C(=O)OC(C)(C)C)[C@@H]1C(C)(C)C | > 100 µM

Specify TGI for COc1ccc(OC)c(/C=C/C(=O)c2ccc(SC)cc2)c1 and stop.
14.9 µM

Specify TGI for COC(=O)C12CC(NC(=O)c3csc([C@@H](C[C@H](C(C)C)N(C)C(=O)[C@@H](NC(=O)[C@H]4CCCCN4C)C(C)C)OC(C)=O)n3)(C1)C2 and stop.
> 33.3 µM

Specify TGI for COc1cc(C2CC(c3cc(Cl)c(C)cc3O)=NN2c2ccc(S(N)(=O)=O)cc2)cc(OC)c1OC (stereo unspecified) and stop.
8.94 µM

Specify TGI for c1ccc(C2C3=C(CCCC3)Nc3nnnn32)cc1 (stereo unspecified) and stop.
> 100 µM

Specify TGI for O=C1CSC2=NC3=C(COC/C3=C\c3ccc(F)cc3)C(c3ccc(F)cc3)N12 (stereo unspecified) and stop.
> 100 µM

Specify TGI for COc1nc2ncc([C@@H](O)[C@H](O)CO)nc2c(=O)[nH]1 and stop.
> 100 µM

Specify TGI for Cc1cncc2cccc(S(=O)(=O)N3CCCNC[C@@H]3C)c12 and stop.
> 100 µM

----------
System: SW-620 colon
procedureText: NCI tumour cell line growth inhibition, 48 h
*1 amine or outer side, *2 acyl side, *3 side chain or, on linkers, in order; H or OH if unused. Where a SMILES comes first, the peptide text is derived from it. [ ]: non-standard residue; d: D form. The star is where a group is joined. X12 = NCCCCC(N[*:1])C(=O)CN1CCCC1C(=O)[*:2]; Pentadecanoyl = CCCCCCCCCCCCCCC(=O)*
resultType: TGI

Guide cases for TGI, answers given:
compound | TGI
CC(=O)O[C@H]1CC[C@]2(C=O)[C@H]3CC[C@]4(C)[C@@H](C5=CC(=O)OC5)CC[C@]4(O)[C@@H]3CC[C@]2(O)C1 | 4.85 µM
CCOc1c(Cc2ccccc2)c(=O)n2c3ccccc3n3c(=O)n(C)c(=O)c1c23 | > 100 µM
CC(=O)[O-].CC(=O)[O-].CC(=O)[O-].CC(=O)[O-].CO.CO.CO.[Rh+2].[Rh+2].c1ccc(-c2ccccn2)nc1 | > 100 µM
CCCCCCCCCCCCCCC(=O)NC(CCCCN)C(=O)CN1CCCC1C(=O)NCC(=O)NC(Cc1ccccc1)C(=O)N1CCCC1C(=O)NC(CO)C(=O)NC(Cc1ccc(O)cc1)C(=O)NC(CCCCN)C(=O)NC(CC(C)C)C(=O)NC(CCCN=C(N)N)C(=O)N1CCCC1C(=O)NCC(N)=O (stereo not given) (Pentadecanoyl-[X12]GFPSYKLRPG-NH2; configuration not given here) | 80.9 µM
C=C(C)[C@@H]1CC[C@@H]2C(=CC[C@]3(C)C([C@H](C)CC/C=C(/C)C(=O)O)CC[C@@]23C)[C@@]1(C)CCC(=O)O (stereo not given in full) | > 100 µM

Specify TGI for CC(=O)c1nc(C#N)c(N)o1 and stop.
> 100 µM

Specify TGI for O=c1cc(-c2ccccc2)[nH]c2c(F)ccc(F)c12 and stop.
> 100 µM

Specify TGI for Cn1c(-c2cccs2)cc(-c2ccsc2)c1-c1ccsc1 and stop.
> 100 µM

Specify TGI for COc1cc(C)c(S(=O)(=O)N(CCCN)OCCCN)c(C)c1C and stop.
> 100 µM

Specify TGI for CCOC(=O)CCC(NC(=O)c1ccc(Nc2nc3cc(N)cc(N)c3nc2-c2ccccc2)cc1)C(=O)OCC (stereo not given) and stop.
> 100 µM

----------
# Lookup of reported TGI keyed by entry
Test system: ACHN renal
procedureText: NCI tumour cell line growth inhibition, 48 h

Guide cases for TGI, answers given:
givenSmiles | result
O=C(O)c1ccccc1/C=C1/Nc2ccccc2C1=O | > 100 µM
O=C1/C(=C/c2ccc(Cl)cc2)COc2ccc(Br)cc21 | > 100 µM
CCCCCCCC(=O)O[C@H]1[C@H]2[C@@H](CC1(C)C)C(=O)[C@]13O[C@H]1C(=O)[C@]1(CO1)[C@]23C | 4.09 µM

Now turn to the next molecule.
Give TGI for this entry on ACHN renal: CCc1cc(Nc2nccc(-c3c(-c4ccc(OC)c(C(=O)Nc5c(F)cccc5F)c4)nc4ccccn34)n2)c(OC)cc1N1CCC(N2CCN(S(C)(=O)=O)CC2)CC1
> 100 µM

----------
Tested on: HT29 colon
procedureText: NCI tumour cell line growth inhibition, 48 h
resultType: TGI (µM)
Dear colleague, please return just the value in µM, with no unit written.

Specify TGI for Cn1ccnc1C(=O)/C=C/c1ccc(CC(=O)Nc2cc(F)c(F)c(F)c2)cc1 and stop.
12.7
